Reference source: paper PMC10747602

- protocol: Liver-to-plasma partitioning (Kp)
- Format: in vivo, Sprague Dawley rats
- measurement.conditions: male, Sprague Dawley, rat, oral, 0.9 mg/kg/day, M, 5 days, mean ± SD n=4, read-out: Liver Kp (liver-to-plasma ratio)
measure: Kp at 120 h

{"molecule": "O=C(O)C(F)(OC(F)(F)C(F)(OC(F)(F)C(F)(OC(F)(F)C(F)(F)C(F)(F)F)C(F)(F)F)C(F)(F)F)C(F)(F)F (stereo not shown)", "measure": "Kp at 120 h", "result": 3.38}

###

- protocol: Liver HFPO-TeA dosimetry
- Type: in vivo, Sprague Dawley rats
- measurement.conditions: female, Sprague Dawley, rat, liver, oral, 17 mg/kg/day, F, 5 days, wet weight, individual rats; read-out: Liver Conc.

{"compound": "O=C(O)C(F)(OC(F)(F)C(F)(OC(F)(F)C(F)(OC(F)(F)C(F)(F)C(F)(F)F)C(F)(F)F)C(F)(F)F)C(F)(F)F (stereo not shown) [HFPO-TeA]", "unit.tag": "ng/g", "concentration at 5 days": 174000}

###

- protocol: In vitro-in vivo extrapolation (IVIVE) to estimate Css, rat
- measurement.conditions: Sprague Dawley, blood, fub=fup/(1-hemocrit ref value), hematocrit 0.439

{"compound": "O=C(O)C(F)(OC(F)(F)C(F)(OC(F)(F)C(F)(F)C(F)(F)F)C(F)(F)F)C(F)(F)F (stereo not drawn)", "fraction unbound at 300 min": 0.0032}
{"compound": "O=C(O)C(F)(OC(F)(F)C(F)(OC(F)(F)C(F)(OC(F)(F)C(F)(F)C(F)(F)F)C(F)(F)F)C(F)(F)F)C(F)(F)F (stereo not drawn)", "fraction unbound at 300 min": 0.0105}
{"compound": "O=C(O)C(F)(OC(F)(F)C(F)(F)C(F)(F)F)C(F)(F)F (stereo not drawn)", "fraction unbound at 300 min": 0.0547}

###

- protocol: Plasma HFPO-TeA dosimetry
- Format: in vivo, Sprague Dawley rats
- measurement.conditions: male, Sprague Dawley, rat, plasma, oral, 0.3 mg/kg/day, M, 2 h after first dose, mean ± SD n=4; read-out: 2 h Plasma Conc.

{"compound": "O=C(O)C(F)(OC(F)(F)C(F)(OC(F)(F)C(F)(OC(F)(F)C(F)(F)C(F)(F)F)C(F)(F)F)C(F)(F)F)C(F)(F)F (stereo not shown)", "concentration at 2 h (µM)": 0.15}

###

- protocol: Plasma HFPO-TeA dosimetry
- Assay type: in vivo, Sprague Dawley rats
- measurement.conditions: female, Sprague Dawley, rat, plasma, oral, 6.3 mg/kg/day, F, 5 days of exposure, mean ± SD n=4; read-out: 5D Plasma Conc.
measure: concentration at 5 days (µM)

{"compound": "O=C(O)C(F)(OC(F)(F)C(F)(OC(F)(F)C(F)(OC(F)(F)C(F)(F)C(F)(F)F)C(F)(F)F)C(F)(F)F)C(F)(F)F (stereo not shown)", "result": 52.6}

###

- System: rat hepatocytes
- protocol: Hepatocyte metabolic stability (clearance) assay, rat hepatocytes
- measurement.conditions: suspended rat hepatocytes, 1000 nM, time in min
measure: Linear Regression Best-Fit Slope (Ln concentration vs time)

{"compound": "O=C(O)C(F)(OC(F)(F)C(F)(F)C(F)(F)F)C(F)(F)F (stereo not shown)", "result": 0.0002303}
{"compound": "CCOc1ccc(NC(C)=O)cc1 [Phenactin, phenacetin, reference compound]", "result": -0.008025}
{"compound": "O=C(O)C(F)(OC(F)(F)C(F)(OC(F)(F)C(F)(F)C(F)(F)F)C(F)(F)F)C(F)(F)F (stereo not shown)", "result": 0.0003164}
{"compound": "O=C(O)C(F)(OC(F)(F)C(F)(OC(F)(F)C(F)(OC(F)(F)C(F)(F)C(F)(F)F)C(F)(F)F)C(F)(F)F)C(F)(F)F (stereo not shown)", "result": 0.001258}
